Listed below: pKd values for each entry.
Target: RSV prefusion F (preF), DS-Cav1 stabilized trimer, subtype A (Respiratory Syncytial Virus, subtype A, UniProt P03420 26-513)
Test: BLI, apparent IgG KD (Table 9A)
Reminder that pKd means the negative base-10 logarithm of the concentration expressed in mol/L.

# binder, pKd
data = [
    ("ADI-20964 (antibody, V domains shown) VH: QVQLVQSGAEVKKPGASVKVSCKASGYTFTHYGISWVRQAPGQGLEWMGWISAYNGNTNYAQKLQGRVTMTTDTSTSTAYMEVRSLRYDDTAVYYCARDVPVEAATSPEFWGQGTLVTVSS VL: DIVMTQTPLSLPVTLGQPASISCRSSQSLVYSDGNTYLSWFQQRPGQSPRRLIYKVSNRDSGVPNRFSGSGSGTDFTLKISRVEAEDVGVYYCVQNTHWPAYTFGQGTKVEIK", 9.44),
    ("ADI-41208 (antibody, V domains shown) VH: QVQLVESGGDLVKPGGSLRLSCAASGFTLSGHYMSWIRQPPGKGLEWVSSISGGSTYTNYADSVKGRFTISRDNAENSLYLQMNSLRAEDTAVYYCARLAYSDYGPFYFDLWGRGTLVTVSS VL: QSVLTQPPSVSGAPGQRVTISCTGSSSNIGAGYDVHWYQQLTGTAPKLLIFDNNNRPSGVPDRFSGSKSGTSASLAITGLQAEDEADYYCQSYDSRLSAPYVFGTGTKLTVL", 9.32),
    ("ADI-36672 (antibody, V domains shown) VH: EVQLVESGGGLVKPGGSLRLSCAASGFAFNNYYMNWVRQAPGKGLEWVSSISSASTYTDYADSVKGRFTISRDNAKNSLYLHLNSLRAEDTAVYYCARDYYGSGNYYNPKPLDVWGQGTTVTVSS VL: QPVLTQPPSVSGAPGQRVTISCTGSSSNIGAGYDVHWYRQFPGTAPELLIYGNTNRPSGVPDRFSGSKSGTSASLAITGLQAEDEADYYCQSYDSSLKGVFGGGTKLTVL", 9.15),
    ("ADI-41274 (antibody, V domains shown, also called Ab 592; Antibody Number 592) VH: EVQLVESGGGLVKPGGSLRLSCAASGFSFSSYAMNWVRQAPGKGLQWVSSISAGSSYIDYADSVKGRFTISRDNAENSLFLQMNSLRVEDTAVYYCARVGSYTHGYEFDYWGQGTLVTVSS VL: QPVLTQPPSVSGAPGQRVTISCTGSNSNIGAGYDVHWYQQLPGTAPKLLIYASTIRPSGVPDRFSGSKSGTSASLAITGLQAEDEADYYCQSYDRNLSVVFGGGTKVTVL", 9.32),
]

Recorded pKd (binder ADI-41191 (antibody, V domains shown) VH: QVQLVQSGAEVKRPGASVKVSCKASGYIFSHYGISWVRQAPGQGLEWMAWISAYNGNTNYAQKLQGRVTVTTDTSTSTAYMELRSLRSDDTAVYYCAREPPSLSAAATLDYWGQGTLVTVSS VL: EIVMTQSPLSLPVTLGQPASISCRSNQSLVYSDGNIYLSWFQQRPGQSPRRLIYKVSNRDSGVPDRFSGSGSGTDFTLKISRVEAEDVAVYYCMQVTHWPHEFGQGTKLEIK ): 9.30
